Recorded pEC50 by entry
- testedSystem: T1, human CD94 expressed on cells (human primary NK cells in PBMCs; HEK cells expressing human CD94) (human, UniProt Q13241 1-179)
- T1 construct: whole, on cells; also called KLRD1; Natural killer cells antigen CD94
- T1 sequence (looked up): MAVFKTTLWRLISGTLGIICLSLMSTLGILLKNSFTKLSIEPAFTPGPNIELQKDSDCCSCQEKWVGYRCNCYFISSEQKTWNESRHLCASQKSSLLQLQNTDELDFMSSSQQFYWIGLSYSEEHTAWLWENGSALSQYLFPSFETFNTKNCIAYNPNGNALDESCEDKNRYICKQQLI
- assayOverview: flow cytometry, HEK cells expressing human CD94, 1st run
Kindly note that pEC50 refers to -log10 of the concentration in mol/L and answer with the value alone.

Some solved entries appear below for comparison.
Ab.28 hG1 (antibody, V domains shown, Human IgG1 form; also called Ab.28 human IgG1) VH: EVQLLESGGGLVKPGGSLRLSCAASGFTFSSYSMNWVRQAPGKGLEWVSSISTSSNFIYYADSVKGRFTISRDNAKNSLYLQMNSLRAEDTAVYYCARDLGRYYYYMDVWGKGTTVTVSS VL: DIVMTQSPSSLSASVGDRVTITCRASQSISSWLAWYQQKPEKAPKSLIYAASSLQSGVPSKFSGSGSGTDFTLTISSLQPEDVATYYCQKYNSAPFTFGPGTKVDIK | 9.96
Ab.25 hG1 (antibody, V domains shown, Human IgG1 form; VH cell printed as 'SEO ID NO: 32'; also called Ab.25 human IgG1) VH: EVQLLESGGGLVKPGGSLRLSCAASGFTFSSYSMNWVRQAPGKGLEWVSSISTSSNYIYYADSVKGRFTISRDNAKNSLYLQMNSLRAEDTAVYYCARDLGRYYYYMDVWGKGTTVTVSS VL: DIVMTQSPSSLSASVGDRVTITCRASQSISSWLAWYQQKPGKAPKSLIYAASSLQSGVPSKFSGSGSGTDFTLTISSLQPEDVATYYCQKYNSAPFTFGPGTKVDIK | 9.82
Ab.33 hG1 (antibody, V domains shown, Human IgG1 form; also called Ab.33 human IgG1) VH: EVQLLESGGGLVKPGGSLRLSCAASGFTFSSYSMNWVRQAPGKGLEWVSSISTSSNFIYYADSVKGRFTISRDNAKNSLYLQMNSLRAEDTAVYYCARDLGRYYYYMDVWGKGTTVTVSS VL: DIVMTQSPSSLSASVGDRVTITCRASQSISSWLAWYQQKPGKAPKSLIYAASSLQSGVPSKFSGSGSGTDFTLTISSLQPEDVATYYCQQYNSAPFTFGPGTKVDIK | 9.60

Now consider a different binder.
stdin: # return recorded pEC50 for entry Ab.34 hG1 (antibody, V domains shown, Human IgG1 form; also called Ab.34 human IgG1) VH: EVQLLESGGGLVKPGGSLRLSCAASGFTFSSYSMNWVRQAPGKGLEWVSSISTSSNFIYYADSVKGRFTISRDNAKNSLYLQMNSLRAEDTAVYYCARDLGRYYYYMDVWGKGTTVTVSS VL: DIVMTQSPSSLSASVGDRVTITCRASQSISSWLAWYQQKPGKAPKSLIYAASSLQSGVPSKFSGSGSGTDFTLTISSLQPEDVATYYCQKYNSYPFTFGPGTKVDIK
stdout: 9.80
